Listing of entries alongside the reported pIC50.
# TARGET_OR_TEST_SYSTEM: HLA DRB1 *1302 (Homo sapiens, UniProt P01903+P01911, A100E/A169T/K41T/L162R/M171V/P40S/Q125H/Q178H/Q39Y/Q99D/R42S/S66N/T262R/V115G/W38E/Y61H)
# Sequence (P01903 26-254 limits assumed, other chains not shown): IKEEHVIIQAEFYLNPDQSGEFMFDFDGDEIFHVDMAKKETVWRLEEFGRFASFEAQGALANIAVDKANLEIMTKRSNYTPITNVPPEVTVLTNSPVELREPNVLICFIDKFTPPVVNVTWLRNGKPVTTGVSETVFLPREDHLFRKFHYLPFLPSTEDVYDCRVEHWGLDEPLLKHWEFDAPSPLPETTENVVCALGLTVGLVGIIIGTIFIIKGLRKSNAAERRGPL
# PROTOCOL_NOTES: IC50nM to purified HLA | DRB1 *1302
pIC50: −log10 of the molar value. Where no end group is shown, it is not given here.
MEASURED_PARAMETER: pIC50

[[record]]
macromolecule_sequence = "AAANFVAAYTLKADA [SEQ ID NO: 56]"
measured = 6.09

[[record]]
macromolecule_sequence = "AAAIFVAAYTLHAAA [SEQ ID NO: 70]"
measured = 5.71

[[record]]
macromolecule_sequence = "AAANFVAAYTLKAEA [SEQ ID NO: 60]"
measured = 6.23

[[record]]
macromolecule_sequence = "AAAQFVAAWTLHAAA [SEQ ID NO: 64]"
measured = 5.95

[[record]]
macromolecule_sequence = "AAANFVAAWTLKAEA [SEQ ID NO: 59]"
measured = 5.98

[[record]]
macromolecule_sequence = "AAAIFVAAWTLHAAA [SEQ ID NO: 69]"
measured = 6.05

[[record]]
macromolecule_sequence = "AAAIFVAANTLHAAA [SEQ ID NO: 72]"
measured = 7.19

[[record]]
macromolecule_sequence = "AAANFVAANTLHAAA [SEQ ID NO: 54]"
measured = 7.36

[[record]]
macromolecule_sequence = "AAANFVAANTLKADA [SEQ ID NO: 58]"
measured = 6.57

[[record]]
macromolecule_sequence = "AAANFVAAFTLKAEA [SEQ ID NO: 61]"
measured = 5.80

[[record]]
macromolecule_sequence = "AAAQFVAAYTLHAAA [SEQ ID NO: 65]"
measured = 6.15


----------
# TARGET_OR_TEST_SYSTEM: HLA DRB1 *0802 (Homo sapiens, UniProt P01903+P01911, A100R/A103L/A169T/F76Y/H45Y/I96F/K41T/L162R/M171V/P40S/Q125H/Q178H/Q39Y/Q99D/R218S/R42G/S66Y/V115G/W38E)
# PROTOCOL_NOTES: IC50nM to purified HLA | DRB1 *0802
Where no end group is shown, it is not given here.
Classification scheme (IC50): group 1 = under 10 nM, group 2 = from 10 nM up to 20 nM, group 3 = 20 nM and over

[[record]]
macromolecule_sequence = "AAANFVAAWTLKADA [SEQ ID NO: 55]"
answer_label = "group 3"

[[record]]
macromolecule_sequence = "AAAIFVAAWTLKAAA [SEQ ID NO: 68]"
answer_label = "group 2"

[[record]]
macromolecule_sequence = "AAANFVAAFTLHAAA [SEQ ID NO: 53]"
answer_label = "group 2"

[[record]]
macromolecule_sequence = "AAAQFVAANTLHAAA [SEQ ID NO: 67]"
answer_label = "group 3"

[[record]]
macromolecule_sequence = "AAAIFVAAYTLHAAA [SEQ ID NO: 70]"
answer_label = "group 1"

[[record]]
macromolecule_sequence = "AAANFVAAWTLKAEA [SEQ ID NO: 59]"
answer_label = "group 2"

[[record]]
macromolecule_sequence = "AAANFVAAYTLKAEA [SEQ ID NO: 60]"
answer_label = "group 3"

[[record]]
macromolecule_sequence = "AAANFVAAFTLKAEA [SEQ ID NO: 61]"
answer_label = "group 2"

[[record]]
macromolecule_sequence = "AAAQFVAAYTLHAAA [SEQ ID NO: 65]"
answer_label = "group 1"

[[record]]
macromolecule_sequence = "AAANFVAAYTLKADA [SEQ ID NO: 56]"
answer_label = "group 3"

[[record]]
macromolecule_sequence = "AAAQFVAAFTLHAAA [SEQ ID NO: 66]"
answer_label = "group 2"

[[record]]
macromolecule_sequence = "AAAIFVAAWTLHAAA [SEQ ID NO: 69]"
answer_label = "group 2"


Measured values drawn from patent US9789181B2 for this set.
